Values compiled from patent US20070104644A1.

- TESTED_TARGET: MMP-2 (Homo sapiens, UniProt P08253)
- Sequence (P08253 110-660): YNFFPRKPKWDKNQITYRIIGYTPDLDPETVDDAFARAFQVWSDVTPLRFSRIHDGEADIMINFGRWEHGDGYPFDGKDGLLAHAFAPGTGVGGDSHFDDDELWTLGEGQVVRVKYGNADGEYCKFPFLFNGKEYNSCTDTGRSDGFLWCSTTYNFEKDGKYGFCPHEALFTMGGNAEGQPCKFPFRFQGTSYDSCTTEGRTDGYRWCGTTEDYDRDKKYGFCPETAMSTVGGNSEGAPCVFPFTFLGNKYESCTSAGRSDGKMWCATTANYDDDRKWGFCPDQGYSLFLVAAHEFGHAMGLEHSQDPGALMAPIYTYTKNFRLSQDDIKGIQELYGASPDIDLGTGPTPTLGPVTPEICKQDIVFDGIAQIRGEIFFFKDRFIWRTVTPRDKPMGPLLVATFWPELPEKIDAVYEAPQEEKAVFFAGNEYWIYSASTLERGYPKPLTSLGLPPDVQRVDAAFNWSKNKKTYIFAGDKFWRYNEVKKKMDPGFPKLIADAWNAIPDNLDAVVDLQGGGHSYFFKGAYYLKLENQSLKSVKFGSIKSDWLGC
- ASSAY: MMP-2 colorimetric assay kit (Biomol AK-408)
- Format: biochemical
Numbered stars: 1 amine (or outer) side, 2 acyl side, 3 side chain; on linkers, the order of the positions; unused ones are H or OH. Square brackets hold non-standard residues; d marks the D form. Peptide text beside a SMILES is read from it. * marks the point of attachment. Tyr(3-I) = N[C@@H](Cc1ccc(O)c(I)c1)C(=O)O; X2 = O=C(NO)C1(N(CCC(=O)[*:2])[*:1])CCCC1; X1 = O=S(=O)(c1ccc(Oc2ccc(F)cc2)cc1)*
We begin with a simple list: items and their reported Ki.
Give your result in nM as a bare value.

Please review the following examples before continuing.
NC(=O)[C@H](Cc1ccc(O)c(I)c1)NC(=O)COCC(=O)NCCOCCOCCOCCNC(=O)[C@H](CCC(=O)O)NC(=O)[C@H](CCC(=O)O)NC(=O)[C@H](CCC(=O)O)NC(=O)[C@H](CCC(=O)O)NC(=O)[C@H](CCC(=O)O)NC(=O)CCN(C1(C(=O)NO)CCCC1)S(=O)(=O)c1ccc(Oc2ccc(F)cc2)cc1    1.25
NC(=O)[C@H](Cc1ccc(O)c(I)c1)NC(=O)CCOCCOCCOCCOCCOCCOCCOCCOCCOCCOCCOCCNC(=O)CCOCCOCCOCCOCCOCCOCCOCCOCCOCCOCCOCCNC(=O)CCN(C1(C(=O)NO)CCCC1)S(=O)(=O)c1ccc(Oc2ccc(F)cc2)cc1    0.62

Query block: Record lookup: for MMP-2 (Homo sapiens, UniProt P08253), what Ki belongs to NC(=O)[C@H](Cc1ccc(O)c(I)c1)NC(=O)[C@H](CCC(=O)O)NC(=O)[C@H](CCC(=O)O)NC(=O)[C@H](CCC(=O)O)NC(=O)[C@H](CCC(=O)O)NC(=O)[C@H](CCC(=O)O)NC(=O)CCN(C1(C(=O)NO)CCCC1)S(=O)(=O)c1ccc(Oc2ccc(F)cc2)cc1 [Compound 21] (X1-[X2]EEEEE[Tyr(3-I)]-NH2) ?
Result block: 1.15

Query block: Record lookup: for MMP-2 (Homo sapiens, UniProt P08253), what Ki belongs to NC(=O)[C@H](CCCCNC(=O)CON=Cc1ccc(F)cc1)NC(=O)CCN(C1(C(=O)NO)CCCC1)S(=O)(=O)c1ccc(Oc2ccc(F)cc2)cc1 ?
Result block: 1.96

Query block: Record lookup: for MMP-2 (Homo sapiens, UniProt P08253), what Ki belongs to O=C(CCN(C1(C(=O)NO)CCCC1)S(=O)(=O)c1ccc(Oc2ccc(F)cc2)cc1)NCCc1ccc(O)c(I)c1 ?
Result block: 0.14

###

- System: Lewis lung carcinoma (LLC) tumour
- ASSAY: Biodistribution in LLC tumour model in vivo
- Design: species or system C57BL/6 mice
- STUDY_CONDITIONS: 5 min post injection
RECORDED_ENDPOINT: Tumour/Heart, mean
Lab note: write the figure by itself, no unit.

Please review the following examples before continuing.
NC(=O)[C@H](Cc1ccc(O)c([123I])c1)NC(=O)[C@H](CCC(=O)O)NC(=O)[C@H](CCC(=O)O)NC(=O)[C@H](CCC(=O)O)NC(=O)[C@H](CCC(=O)O)NC(=O)[C@H](CCC(=O)O)NC(=O)CCN(C1(C(=O)NO)CCCC1)S(=O)(=O)c1ccc(Oc2ccc(F)cc2)cc1 [Compound 21A]    0.30
NC(=O)[C@H](CCCCNC(=O)CON=Cc1ccc([18F])cc1)NC(=O)CCOCCOCCOCCOCCOCCOCCOCCOCCOCCOCCOCCNC(=O)CCOCCOCCOCCOCCOCCOCCOCCOCCOCCOCCOCCNC(=O)CCN(C1(C(=O)NO)CCCC1)S(=O)(=O)c1ccc(Oc2ccc(F)cc2)cc1 [Compound 48B]    0.40
NCCCC[C@H](NC(=O)CCN(C1(C(=O)NO)CCCC1)S(=O)(=O)c1ccc(Oc2ccc(F)cc2)cc1)C(=O)N[C@@H](CCCCN)C(=O)N[C@@H](CCCCN)C(=O)N[C@@H](CCCCN)C(=O)N[C@@H](CCCCN)C(=O)NCCOCCOCCOCCNC(=O)COCC(=O)N[C@@H](Cc1ccc(O)c([123I])c1)C(N)=O [Compound 42A]    0.47
NC(=O)[C@H](Cc1ccc(O)c([123I])c1)NC(=O)CCOCCOCCOCCOCCOCCOCCOCCOCCOCCOCCOCCNC(=O)CCN(C1(C(=O)NO)CCCC1)S(=O)(=O)c1ccc(Oc2ccc(F)cc2)cc1 [Compound 44A]    0.86
NC(=O)[C@H](Cc1ccc(O)c([123I])c1)NC(=O)COCC(=O)NCCOCCOCCOCCNC(=O)[C@H](CCC(=O)O)NC(=O)[C@H](CCC(=O)O)NC(=O)[C@H](CCC(=O)O)NC(=O)[C@H](CCC(=O)O)NC(=O)[C@H](CCC(=O)O)NC(=O)CCN(C1(C(=O)NO)CCCC1)S(=O)(=O)c1ccc(Oc2ccc(F)cc2)cc1 [Compound 38A]    0.29
O=C(CCN(C1(C(=O)NO)CCCC1)S(=O)(=O)c1ccc(Oc2ccc(F)cc2)cc1)NCCc1ccc(O)c([123I])c1 [Compound 24A]    0.27

Query block: What measured Tumour/Heart, mean goes with NC(=O)[C@H](Cc1ccc(O)c([123I])c1)NC(=O)CCOCCOCCOCCOCCOCCOCCOCCOCCOCCOCCOCCNC(=O)CCOCCOCCOCCOCCOCCOCCOCCOCCOCCOCCOCCNC(=O)CCN(C1(C(=O)NO)CCCC1)S(=O)(=O)c1ccc(Oc2ccc(F)cc2)cc1 [Compound 32A] ?
Result block: 0.48

Query block: What measured Tumour/Heart, mean goes with NC(=O)[C@H](CCCCNC(=O)CON=Cc1ccc([18F])cc1)NC(=O)CCN(C1(C(=O)NO)CCCC1)S(=O)(=O)c1ccc(Oc2ccc(F)cc2)cc1 [Compound 46B] ?
Result block: 0.37

###

- System: Lewis lung carcinoma (LLC) tumour
- ASSAY: Biodistribution in LLC tumour model in vivo
- Parameters: species or system C57BL/6 mice
- STUDY_CONDITIONS: 30 min post injection
Label rule met when Tumour/Blood, mean is strictly below 0.3; at or above that, label rule not met.

Query block: Take the compound NC(=O)[C@H](Cc1ccc(O)c([123I])c1)NC(=O)[C@H](CCC(=O)O)NC(=O)[C@H](CCC(=O)O)NC(=O)[C@H](CCC(=O)O)NC(=O)[C@H](CCC(=O)O)NC(=O)[C@H](CCC(=O)O)NC(=O)CCN(C1(C(=O)NO)CCCC1)S(=O)(=O)c1ccc(Oc2ccc(F)cc2)cc1 [Compound 21A] and say whether its Tumour/Blood, mean is less than 0.3.
Result block: rule not met

Query block: Take the compound NCCCC[C@H](NC(=O)CCN(C1(C(=O)NO)CCCC1)S(=O)(=O)c1ccc(Oc2ccc(F)cc2)cc1)C(=O)N[C@@H](CCCCN)C(=O)N[C@@H](CCCCN)C(=O)N[C@@H](CCCCN)C(=O)N[C@@H](CCCCN)C(=O)NCCOCCOCCOCCNC(=O)COCC(=O)N[C@@H](Cc1ccc(O)c([123I])c1)C(N)=O [Compound 42A] and say whether its Tumour/Blood, mean is less than 0.3.
Result block: rule not met

Query block: Take the compound O=C(CCN(C1(C(=O)NO)CCCC1)S(=O)(=O)c1ccc(Oc2ccc(F)cc2)cc1)NCCc1ccc(O)c([123I])c1 [Compound 24A] and say whether its Tumour/Blood, mean is less than 0.3.
Result block: rule not met

Query block: Take the compound NC(=O)[C@H](Cc1ccc(O)c([123I])c1)NC(=O)CCOCCOCCOCCOCCOCCOCCOCCOCCOCCOCCOCCNC(=O)CCN(C1(C(=O)NO)CCCC1)S(=O)(=O)c1ccc(Oc2ccc(F)cc2)cc1 [Compound 44A] and say whether its Tumour/Blood, mean is less than 0.3.
Result block: rule not met

Query block: Take the compound NC(=O)[C@H](Cc1ccc(O)c([123I])c1)NC(=O)CCOCCOCCOCCOCCOCCOCCOCCOCCOCCOCCOCCNC(=O)CCOCCOCCOCCOCCOCCOCCOCCOCCOCCOCCOCCNC(=O)CCN(C1(C(=O)NO)CCCC1)S(=O)(=O)c1ccc(Oc2ccc(F)cc2)cc1 [Compound 32A] and say whether its Tumour/Blood, mean is less than 0.3.
Result block: rule met

Query block: Take the compound NC(=O)[C@H](CCCCNC(=O)CON=Cc1ccc([18F])cc1)NC(=O)CCN(C1(C(=O)NO)CCCC1)S(=O)(=O)c1ccc(Oc2ccc(F)cc2)cc1 [Compound 46B] and say whether its Tumour/Blood, mean is less than 0.3.
Result block: rule not met

Query block: Take the compound NC(=O)[C@H](CCCCNC(=O)CON=Cc1ccc([18F])cc1)NC(=O)CCOCCOCCOCCOCCOCCOCCOCCOCCOCCOCCOCCNC(=O)CCOCCOCCOCCOCCOCCOCCOCCOCCOCCOCCOCCNC(=O)CCN(C1(C(=O)NO)CCCC1)S(=O)(=O)c1ccc(Oc2ccc(F)cc2)cc1 [Compound 48B] and say whether its Tumour/Blood, mean is less than 0.3.
Result block: rule met
